Study Target: PIM1 (Homo sapiens, UniProt P11309)
Sequence (P11309 whole entry): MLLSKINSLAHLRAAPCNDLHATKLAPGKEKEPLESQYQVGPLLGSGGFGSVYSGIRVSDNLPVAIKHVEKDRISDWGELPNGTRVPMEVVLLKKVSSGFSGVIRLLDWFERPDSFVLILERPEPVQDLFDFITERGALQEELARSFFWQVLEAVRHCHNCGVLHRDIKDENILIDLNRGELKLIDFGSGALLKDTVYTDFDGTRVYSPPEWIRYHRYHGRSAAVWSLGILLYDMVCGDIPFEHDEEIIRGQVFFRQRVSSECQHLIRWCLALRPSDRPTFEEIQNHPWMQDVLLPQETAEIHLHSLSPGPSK
Protocol Text: Pim 1 AlphaScreen assay (high ATP)
Format: biochemical
Condition Details: read-out: Pim1 IC50
Recorded Metric: IC50 (nM)

Known results for compounds:
C[C@H]1O[C@@H](c2ccncc2NC(=O)c2csc(-c3c(F)cccc3F)n2)C[C@@H](N)[C@]1(C)O [Example 221]	0.64
Nc1cnc(-c2c(F)cccc2F)nc1C(=O)Nc1cnccc1[C@H]1C[C@@H](O)[C@H](O)C2(CC2)O1 [Example 252]	20.3
C[C@]1(O)[C@H](N)C[C@H](c2ccncc2NC(=O)c2ccc(F)c(-c3c(F)cccc3F)n2)OC12CC2 [Example 267]	2.52

[I] CSc1ccc(F)c(-c2nc(C(=O)Nc3cnccc3[C@H]3C[C@@H](N)[C@](C)(O)[C@@H](C)O3)ccc2F)c1F [Example 327]
[II] N[C@@H]1C[C@H](c2ccncc2NC(=O)c2ccc(F)c(-c3c(F)cccc3F)n2)O[C@@H]2CCC(=O)N[C@@H]12 [Example 241]
Prompt line: // compare measured IC50, left I , right II , return larger Give the label under which the chosen entry appears.
Response line: II

[1] CC[C@]1(O)[C@H](N)C[C@H](c2ccncc2NC(=O)c2nc(-c3c(F)cccc3F)ncc2N)O[C@@H]1C [Example 239]
[2] Cc1cc(F)c(-c2nc(C(=O)Nc3cnccc3[C@H]3C[C@@H](N)[C@](C)(O)[C@@H](C)O3)ccc2F)c(F)c1 [Example 245]
Prompt line: Please choose the item with the lower IC50 value from this pair: 1 and 2 Give the label under which the chosen entry appears.
Response line: 2
